MEASURED_TARGET: PfCRT^Ecu1110 (Plasmodium falciparum, UniProt Q9N623, A220S/I356L/K76T/N326D)
Sequence (Q9N623 whole entry A220S/I356L/K76T/N326D): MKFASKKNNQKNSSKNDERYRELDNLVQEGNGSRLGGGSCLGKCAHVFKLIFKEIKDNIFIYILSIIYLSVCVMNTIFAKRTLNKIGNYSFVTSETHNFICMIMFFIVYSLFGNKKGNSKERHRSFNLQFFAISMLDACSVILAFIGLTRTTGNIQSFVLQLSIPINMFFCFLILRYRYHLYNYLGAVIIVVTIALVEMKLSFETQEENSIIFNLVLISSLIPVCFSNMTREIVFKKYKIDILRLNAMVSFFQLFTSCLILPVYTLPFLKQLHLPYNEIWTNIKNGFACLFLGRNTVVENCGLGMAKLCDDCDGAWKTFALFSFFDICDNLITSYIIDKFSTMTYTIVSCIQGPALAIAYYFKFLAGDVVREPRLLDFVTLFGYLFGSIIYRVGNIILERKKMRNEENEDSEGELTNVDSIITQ
ASSAY_SUMMARY: [3H]CQ uptake into Xenopus oocytes, cis-inhibition by unlabelled solute
Type: cell-based
ASSAY_SETUP: read-out: Uptake of [3H]CQ (% PfCRTDd2 control), cis-inhibition, PfCRTEcu1110; SEM
Please go through the items and note down their inhibition at 2000 µM.
Number in %, nothing else.

For the molecule shown here, N[C@@H](Cc1ccccc1)C(=O)O [L-phenylalanine] , give the reported inhibition at 2000 µM.
32

Try the molecule CSCC[C@H](N)C(=O)O [L-methionine]
33

Try the molecule NC(=O)CC[C@H](N)C(=O)O [L-glutamine]
32

Try the molecule NCCCC[C@H](N)C(=O)O [L-lysine]
32

Try the molecule CC[C@H](C)[C@H](N)C(=O)O [L-isoleucine]
33

Try the molecule O=C(O)[C@@H]1CCCN1 [L-proline]
32

Try the molecule N[C@@H](CCC(=O)O)C(=O)O [L-glutamic acid]
32

Try the molecule N[C@@H](CO)C(=O)O [L-serine]
33

Try the molecule N[C@@H](Cc1c[nH]cn1)C(=O)O [L-histidine]
33

Try the molecule C[C@H](N)C(=O)O [L-alanine]
32

Try the molecule CC(C)[C@H](N)C(=O)O [L-valine]
31

Try the molecule N[C@@H](CS)C(=O)O [L-cysteine]
33

Try the molecule CC(C)C[C@H](N)C(=O)O [L-leucine]
33

Try the molecule N[C@@H](Cc1ccc(O)cc1)C(=O)O [L-tyrosine]
32

Try the molecule N=C(N)NCCC[C@H](N)C(=O)O [L-arginine]
33

Try the molecule C[C@@H](O)[C@H](N)C(=O)O [L-threonine]
31

Try the molecule N[C@@H](Cc1c[nH]c2ccccc12)C(=O)O [L-tryptophan]
33

###

MEASURED_TARGET: PfCRT^Ecu1110 (Plasmodium falciparum, UniProt Q9N623, A220S/I356L/K76T/N326D)
ASSAY_SUMMARY: [3H]CQ uptake into Xenopus oocytes, cis-inhibition by unlabelled solute
Type: cell-based
ASSAY_SETUP: cis-inhibition; [test solute] = 0.5 mM; PfCRT-mediated component (background subtracted), sheet title says normalised to PfCRTDd2 control; mean ± SEM; SEM
ENDPOINT: [3H]CQ transport (% PfCRTEcu1110 control), cis-inhibition, PfCRTEcu1110
Number in % PfCRTEcu1110 control, nothing else.

Form entry - test system: PfCRT^Ecu1110 (Plasmodium falciparum, UniProt Q9N623, A220S/I356L/K76T/N326D); read-out: [3H]CQ transport (% PfCRTEcu1110 control), cis-inhibition, PfCRTEcu1110; substance: HAGEYG [HG-6]
11

Try the substance VDPVNFK [VK-7]
13

Try the substance DMPNALS [DS-7, host-derived peptide upstream of PL-4]
16

Try the substance FPHFDLS [FS-7]
12

Try the substance EFTPPVQ [EQ-7]
14

Try the substance HVDPEN [HN-6]
19

Try the substance FSDGLA [FA-6]
19

Try the substance LSFPTTK [LK-7]
15

Try the substance SHCLLVT [ST-7]
12

Try the substance HVDDMPN [HN-7]
11

Try the substance DLDDALDK [DK-8]
15

###

Please go through the items and note down their PfCRT-mediated [3H]CQ transport, cis-inhibition (% PfCRTDd2 control).
MEASURED_TARGET: PfCRT^Dd2 (Plasmodium falciparum, UniProt Q9N623, A220S/I356T/K76T/M74I/N326S/N75E/Q271E/R371I)
Sequence (Q9N623 whole entry A220S/I356T/K76T/M74I/N326S/N75E/Q271E/R371I): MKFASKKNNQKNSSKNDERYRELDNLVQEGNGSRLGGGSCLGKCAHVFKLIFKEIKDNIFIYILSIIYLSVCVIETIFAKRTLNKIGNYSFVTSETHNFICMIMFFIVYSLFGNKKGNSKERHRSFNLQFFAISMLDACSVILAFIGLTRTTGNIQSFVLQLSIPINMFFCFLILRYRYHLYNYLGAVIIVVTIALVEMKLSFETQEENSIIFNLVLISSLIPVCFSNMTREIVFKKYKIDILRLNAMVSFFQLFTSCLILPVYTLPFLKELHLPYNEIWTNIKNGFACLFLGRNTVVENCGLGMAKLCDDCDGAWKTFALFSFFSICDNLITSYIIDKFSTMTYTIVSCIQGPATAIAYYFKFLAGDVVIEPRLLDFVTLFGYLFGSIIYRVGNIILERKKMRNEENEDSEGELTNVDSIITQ
ASSAY_SUMMARY: [3H]CQ uptake into Xenopus oocytes, cis-inhibition by unlabelled solute
Assay type: cell-based
ASSAY_SETUP: [test solute] = 0.5 mM; PfCRTDd2 oocytes; background [3H]CQ accumulation subtracted; normalised to oocyte type control
Number in % PfCRTDd2 control, nothing else.

For the substance shown here, HVDPENF [HF-7] , give the reported PfCRT-mediated [3H]CQ transport, cis-inhibition (% PfCRTDd2 control).
40

Try the substance SHCLLVT [ST-7]
38

Try the substance VLSPAD [VD-6]
47

Try the substance KEFTPPVQA [KA-9]
48

Try the substance VDPVNFK [VK-7]
17

Try the substance VDEVGG [VG-6]
55

Try the substance HVDDMP [HP-6]
22

Try the substance EFTPPVQ [EQ-7]
40

Try the substance DLHAHKLR [DR-8]
47

Try the substance PHFDLS [PS-6]
46

Try the substance HVDPENFRL [HL-9]
38

Try the substance AEALERMF [AF-8]
61

Try the substance HAGEYG [HG-6]
36

Try the substance LSDLHAHK [LK-8]
55

Try the substance FSDGLA [FA-6]
29

Try the substance DLDDALDK [DK-8]
44

Try the substance FPHFDLS [FS-7]
30

Try the substance HVDDMPN [HN-7]
37

Try the substance LHVDPENF [LF-8]
37

Try the substance VVYPWTQR [VR-8]
40

Try the substance DPENFR [DR-6]
38

Try the substance LSFPTTK [LK-7]
48

Try the substance HVDPEN [HN-6]
21

Try the substance HVDDMPNA [HA-8]
48

Try the substance DTSLKPIS [DS-8]
40

Try the substance VHLTPEEK [VK-8]
69

Try the substance DMPNALS [DS-7, host-derived peptide upstream of PL-4]
49

Try the substance YFPHFDLS [YS-8]
38

###

MEASURED_TARGET: PfCRT^Dd2 (Plasmodium falciparum, UniProt Q9N623, A220S/I356T/K76T/M74I/N326S/N75E/Q271E/R371I)
ASSAY_SUMMARY: cell-based
Format: cell-based
ASSAY_SETUP: […], pH 5.5, read-out: Uptake of [3H]CQ (% PfCRTDd2 control), trans-stimulation, PfCRTDd2 oocytes; [test solute]i = 45 mM (30 mM for some solutes due to solubility); total [3H]CQ transport, normalised to the oocyte type control
Protocol: Unless specified otherwise, the transport assays were conducted over 1.5 h at 27.5 °C and the reaction buffer was ND96 (96 mM NaCl, 2 mM KCl, 1 mM MgCl2, 1.8 mM CaCl2, 10 mM MES and 10 mM Tris-base) at pH 5.5. The intracellular concentrations were calculated using previous estimates of the volume of stage V–VI oocytes (~400 nL[60]). […] The oocytes were injected with VF-6 suspended in 25 nL ND96 buffer adjusted to pH 5.0, 5.5, 6.0 or 7.0, which corresponded to the injection of 2.5–250 fmol of H^+. […]
ENDPOINT: activity at 45000 µM
Reply with the number, then its unit.

For the compound shown here, CSCC[C@H](N)C(=O)O , give the reported activity at 45000 µM.
99%

Try the compound CC(C)C[C@H](N)C(=O)O
98%

Try the compound N[C@@H](Cc1ccc(O)cc1)C(=O)O
96%

Try the compound N=C(N)NCCC[C@H](N)C(=O)O
97%

Try the compound N[C@@H](Cc1c[nH]c2ccccc12)C(=O)O
101%

Try the compound N[C@@H](CO)C(=O)O
100%

Try the compound N[C@@H](CCC(=O)O)C(=O)O
96%

Try the compound C[C@H](N)C(=O)O
98%

Try the compound NC(=O)CC[C@H](N)C(=O)O
100%

Try the compound C[C@@H](O)[C@H](N)C(=O)O
99%

Try the compound N[C@@H](Cc1c[nH]cn1)C(=O)O
97%

Try the compound CC(C)[C@H](N)C(=O)O
97%

Try the compound N[C@@H](CS)C(=O)O
101%

Try the compound CC[C@H](C)[C@H](N)C(=O)O
100%

Try the compound NCCCC[C@H](N)C(=O)O
97%

Try the compound N[C@@H](Cc1ccccc1)C(=O)O
100%

###

Please go through the items and note down their inhibition at 500 µM.
MEASURED_TARGET: PfCRT^Ecu1110 (Plasmodium falciparum, UniProt Q9N623, A220S/I356L/K76T/N326D)
ASSAY_SUMMARY: [3H]CQ uptake into Xenopus oocytes, cis-inhibition by unlabelled solute
Format: cell-based
ASSAY_SETUP: read-out: Uptake of [3H]CQ (% PfCRTEcu1110 control), cis-inhibition
Number in %, nothing else.

For the molecule shown here, N[C@@H](CCC(=O)O)C(=O)O [L-glutamic acid] , give the reported inhibition at 500 µM.
94

Try the molecule CSCC[C@H](N)C(=O)O [L-methionine]
96

Try the molecule C[C@H](N)C(=O)O [L-alanine]
96

Try the molecule N[C@@H](Cc1c[nH]cn1)C(=O)O [L-histidine]
97

Try the molecule N=C(N)NCCC[C@H](N)C(=O)O [L-arginine]
100

Try the molecule C[C@@H](O)[C@H](N)C(=O)O [L-threonine]
96

Try the molecule CC(C)C[C@H](N)C(=O)O [L-leucine]
102

Try the molecule NC(=O)CC[C@H](N)C(=O)O [L-glutamine]
98

Try the molecule N[C@@H](Cc1ccccc1)C(=O)O [L-phenylalanine]
97

Try the molecule CC[C@H](C)[C@H](N)C(=O)O [L-isoleucine]
96

Try the molecule O=C(O)[C@@H]1CCCN1 [L-proline]
100

Try the molecule N[C@@H](CO)C(=O)O [L-serine]
101
